- Tested on: Saccharomyces cerevisiae BY4741 SeMeCo community
- TEST DESCRIPTION: z-score of subpopulation abundance vs DMSO median, subpopulation auxotrophic for HU; higher = larger share of this subpopulation than in DMSO controls
- CONDITION PARAMETERS: 10 µM; 24 h; SM minimal medium; subpopulation (auxotrophy): HU
Structures can show the parent of a compound that is named as a salt.
// label = rule met if z-score of subpopulation abundance is not less than 0.5, otherwise rule not met

Examples with answers:
Cc1cc(C)nc(O)n1.O=C(Nc1ccc([N+](=O)[O-])cc1)Nc1ccc([N+](=O)[O-])cc1 ... rule not met
COc1ccnc(C[S+]([O-])c2nc3cc(-n4cccc4)ccc3[nH]2)c1C (stereo not drawn) [Ilaprazole sodium] ... rule not met
CN(Cc1cnc2nc(N)nc(N)c2n1)c1ccc(C(=O)N[C@@H](CCC(=O)O)C(=O)O)cc1 [Methotrexate] ... rule met

Asked: Hi, just wondering whether COC(=O)C1=C(C)NC(C)=C(C(=O)OC(C)C)C1c1cccc2nonc12 (stereo not drawn) shows z-score of subpopulation abundance of 0.5 or higher.
Given back: rule met

Asked: Hi, just wondering whether CN1CCN(C2=Nc3ccccc3Oc3ccc(Cl)cc32)CC1 [Loxapine Succinate] shows z-score of subpopulation abundance of 0.5 or higher.
Given back: rule met

Asked: Hi, just wondering whether CCCN(CCc1cccs1)[C@H]1CCc2c(O)cccc2C1 shows z-score of subpopulation abundance of 0.5 or higher.
Given back: rule not met

Asked: Hi, just wondering whether Cc1c(OCC(F)(F)F)ccnc1C[S+]([O-])c1nc2ccccc2[nH]1 (stereo not drawn) shows z-score of subpopulation abundance of 0.5 or higher.
Given back: rule met

Asked: Hi, just wondering whether CO/N=C(/C(=O)N[C@@H]1C(=O)N2C(C(=O)OCOC(=O)C(C)(C)C)=C(C)CS[C@H]12)c1csc(N)n1 [Cefetamet pivoxil hydrochloride] shows z-score of subpopulation abundance of 0.5 or higher.
Given back: rule met
